system: Escherichia coli TOP10; experiment: shrunken log2 fold change of peptide-encoding DNA abundance (4.5 h post-induction vs induction); higher = less antimicrobial activity (less host growth inhibition); conditions: time post-induction: 4.5 h; library: site-saturation at positions 5, 18, 19, 20;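 note: peptides expressed intracellularly from a pBAD plasmid library in pooled LB shake-flask culture, induced with 0.3% L-arabinose, DNA abundance read by NGS, three biological replicates, DESeq2 with apeglm shrinkage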
Please provide measured shrunken log2 fold change for the entries that follow.
Give bare numbers.

RRIRSRPPRLPRPRPRPNDLPRP :: -0.23
RRIRCRPPRLPRPRPRPWTDPRP :: -0.055
RRIRFRPPRLPRPRPRPSESPRP :: -0.0918
RRIRCRPPRLPRPRPRPEEKPRP :: 0.0239
RRIRPRPPRLPRPRPRPLPWPRP :: 0.592

Look at each sequence and report its shrunken log2 fold change.
1. RRIRTRPPRLPRPRPRPWCYPRP
2. RRIRWRPPRLPRPRPRPECEPRP
3. RRIRGRPPRLPRPRPRPVRYPRP
4. RRIRDRPPRLPRPRPRPGKNPRP
5. RRIRRRPPRLPRPRPRPSLVPRP
6. RRIRIRPPRLPRPRPRPCENPRP

1: -0.291; 2: 0.912; 3: 0.428; 4: -0.543; 5: 0.243; 6: -0.00127

Numbers sourced from the supplement of paper PMC9112550.
